test system: human subcutaneoous mature adipocytes; assay: Lipolytic activity: glycerol release in human adipocytes (Lipolysis Assay kit); type: cell-based; conditions: 25 μg/ml; human subcutaneous mature adipocytes
[ ]: non-standard residue; d: D form.
Quick reference: Lipolysis Activity measured as Glycerol (μM) release in media of the listed items.
reported.endpoint: Lipolysis Activity measured as Glycerol (μM) release in media (µM)

NDPEGVIY (H-[dN][dD][dP][dE]G[dV][dI][dY]-OH; SMILES CC[C@@H](C)[C@@H](NC(=O)[C@H](NC(=O)CNC(=O)[C@@H](CCC(=O)O)NC(=O)[C@H]1CCCN1C(=O)[C@@H](CC(=O)O)NC(=O)[C@H](N)CC(N)=O)C(C)C)C(=O)N[C@H](Cc1ccc(O)cc1)C(=O)O) [GP3D-DM6, N-term NH2, C-term COOH] = 19.83
WDPEGV (H-[dW][dD][dP][dE]G[dV]-OH; SMILES CC(C)[C@@H](NC(=O)CNC(=O)[C@@H](CCC(=O)O)NC(=O)[C@H]1CCCN1C(=O)[C@@H](CC(=O)O)NC(=O)[C@H](N)Cc1c[nH]c2ccccc12)C(=O)O) [GP3D-6 I VIII IX X, N-term NH2, C-term COOH] = 18.07
